# Conditions: human
Observed Property: Hepatotoxicity (choleostasis)
Enter a number only.

For reference, reported Hepatotoxicity (choleostasis) for CO[C@H]1/C=C/O[C@@]2(C)Oc3c(C)c(O)c4c(O)c(cc(O)c4c3C2=O)NC(=O)/C(C)=C\C=C\[C@H](C)[C@H](O)[C@@H](C)[C@@H](O)[C@@H](C)[C@H](OC(C)=O)[C@@H]1C stands at 2

For reference, reported Hepatotoxicity (choleostasis) for CO/N=C(\C(=O)N[C@@H]1C(=O)N2C(C(=O)OC(C)OC(C)=O)=C(COC(N)=O)CS[C@H]12)c1ccco1 (stereo partly drawn) stands at 1

For reference, reported Hepatotoxicity (choleostasis) for CN(C)C/C=C(/c1ccc(Br)cc1)c1cccnc1 stands at 3

For reference, reported Hepatotoxicity (choleostasis) for CC(C)[N+](C)(CCC(C(N)=O)(c1ccccc1)c1ccccc1)C(C)C [ISOPROPAMIDE] stands at 0

For reference, reported Hepatotoxicity (choleostasis) for CN1CCC(=C2c3ccccc3CCc3sccc32)CC1 stands at 1

For reference, reported Hepatotoxicity (choleostasis) for CC(=O)OCC1=C(C(=O)O)N2C(=O)[C@@H](NC(=O)CSc3ccncc3)[C@H]2SC1 stands at 1

For reference, reported Hepatotoxicity (choleostasis) for Cc1c(Cl)cccc1Nc1ccccc1C(=O)O stands at 0

For reference, reported Hepatotoxicity (choleostasis) for CO/N=C(\C(=O)N[C@@H]1C(=O)N2C(C(=O)O)=CCS[C@H]12)c1csc(N)n1 stands at 1

For reference, reported Hepatotoxicity (choleostasis) for O=C(NCC1CCCCN1)c1cc(OCC(F)(F)F)ccc1OCC(F)(F)F (stereo not drawn) [FLECAINIDE] stands at 2

For reference, reported Hepatotoxicity (choleostasis) for CC(C)C[C@H](NC(=O)[C@@H](O)[C@H](N)Cc1ccccc1)C(=O)O stands at 0

For reference, reported Hepatotoxicity (choleostasis) for O=c1[nH]c(=O)n([C@@H]2O[C@H](CO)[C@@H](O)[C@@H]2F)cc1I stands at 0

For reference, reported Hepatotoxicity (choleostasis) for CC(C)NCC(O)COc1cccc2[nH]ccc12 (stereo not drawn) stands at 0

For reference, reported Hepatotoxicity (choleostasis) for O=C1CC2(CCCC2)CC(=O)N1CCCCN1CCN(c2nsc3ccccc23)CC1 stands at 0

For reference, reported Hepatotoxicity (choleostasis) for CC(C(=O)O)c1ccc2c(c1)[nH]c1ccc(Cl)cc12 (stereo not drawn) stands at 0

For reference, reported Hepatotoxicity (choleostasis) for Nc1ncnc2c1ncn2CCOCP(=O)(O)O stands at 0

For reference, reported Hepatotoxicity (choleostasis) for O=C(COCC(=O)Nc1c(I)cc(I)c(C(=O)O)c1I)Nc1c(I)cc(I)c(C(=O)O)c1I stands at 0

For reference, reported Hepatotoxicity (choleostasis) for CCOP(=O)(OCC)C(C)NC(=O)N(CCCl)N=O (stereo not drawn) stands at 0

For reference, reported Hepatotoxicity (choleostasis) for O=C(O)CCC(=O)c1ccc(-c2ccccc2)cc1 stands at 2

====

# Conditions: human, Liver
Hepatotoxicity (cytolytic) vs 1: at or above is True, below is False.

Req: API: above_or_equal(metric=Hepatotoxicity (cytolytic), cutoff=1) for item CCCCNC(=N)NC(=N)N
Resp: False

Req: API: above_or_equal(metric=Hepatotoxicity (cytolytic), cutoff=1) for item Cc1ccc(-c2cc(C(F)(F)F)nn2-c2ccc(S(N)(=O)=O)cc2)cc1
Resp: True

Req: API: above_or_equal(metric=Hepatotoxicity (cytolytic), cutoff=1) for item CNCCCN1c2ccccc2CCc2ccccc21
Resp: True

Req: API: above_or_equal(metric=Hepatotoxicity (cytolytic), cutoff=1) for item CCCN[C@H]1CCc2nc(N)sc2C1 [PRAMIPEXOLE]
Resp: False

Req: API: above_or_equal(metric=Hepatotoxicity (cytolytic), cutoff=1) for item Nc1ccn([C@@H]2O[C@H](CO)[C@@H](O)[C@@H]2O)c(=O)n1
Resp: True

Req: API: above_or_equal(metric=Hepatotoxicity (cytolytic), cutoff=1) for item Clc1ccccc1CN1CCc2sccc2C1
Resp: True

====

# Conditions: human
Kindly supply the reported Hepatotoxicity (choleostasis) values for the records listed here.
Enter a number only.

For reference, reported Hepatotoxicity (choleostasis) for Oc1ncnc2[nH]ncc12 stands at 12

For reference, reported Hepatotoxicity (choleostasis) for CC(=O)N[C@H]1[C@@H](O[C@H]2[C@H](O)[C@@H](O)[C@H](O[C@H]3[C@H](CS(=O)(=O)O)[C@@H](OS(=O)(=O)O)[C@@H](O[C@H]4[C@H](O)[C@@H](OS(=O)(=O)O)C(O)O[C@H]4C(=O)O)O[C@@H]3O)O[C@@H]2C(=O)O)O[C@H](COS(=O)(=O)O)[C@@H](O)[C@@H]1O (some centres not stated) [SODIUM HEPARIN] stands at 1

For reference, reported Hepatotoxicity (choleostasis) for CN1CC[C@@H]2Nc3ccccc3[C@@H]2C1.Cl.Cl stands at 1

For reference, reported Hepatotoxicity (choleostasis) for CC(C)(N)C(=O)N[C@H](COCc1ccccc1)C(=O)N1CCC2(CC1)CN(S(C)(=O)=O)c1ccccc12 stands at 0

For reference, reported Hepatotoxicity (choleostasis) for CC[C@@H](CO)NC(=O)[C@@H]1C=C2c3cccc4c3c(cn4C)C[C@H]2N(C)C1 [METHYSERGIDE] stands at 0

For reference, reported Hepatotoxicity (choleostasis) for CN(C)CCCN1c2ccccc2CCc2ccc(Cl)cc21 stands at 2

For reference, reported Hepatotoxicity (choleostasis) for Clc1ccc(C(c2ccccc2Cl)C(Cl)Cl)cc1 (configuration not stated) stands at 0

====

Kindly supply the reported Hepatotoxicity (cytolytic) values for the records listed here.
# Conditions: human, Liver

For reference, reported Hepatotoxicity (cytolytic) for CN(C)CCCn1c2c(c3ccccc31)CCCCCC2 stands at 1

For reference, reported Hepatotoxicity (cytolytic) for O=C(O)c1cc(-c2ccc(F)cc2F)ccc1O stands at 2

For reference, reported Hepatotoxicity (cytolytic) for CC1(C)NC(=O)N(c2ccc([N+](=O)[O-])c(C(F)(F)F)c2)C1=O [NILUTAMIDE] stands at 4

For reference, reported Hepatotoxicity (cytolytic) for CC(C)(C(=O)O)c1ccc(C(O)CCCN2CCC(C(O)(c3ccccc3)c3ccccc3)CC2)cc1 (stereo not drawn) [FEXOFENADINE] stands at 0

For reference, reported Hepatotoxicity (cytolytic) for OC(Cn1cncn1)(Cn1cncn1)c1ccc(F)cc1F stands at 15

For reference, reported Hepatotoxicity (cytolytic) for C1CNCCN1 stands at 1

For reference, reported Hepatotoxicity (cytolytic) for CC(C)(C)NCC(O)c1ccc(O)c(CO)c1 (stereo not drawn) stands at 0

For reference, reported Hepatotoxicity (cytolytic) for Nc1ccc(S(=O)(=O)c2ccc(N)cc2)cc1 stands at 15

For reference, reported Hepatotoxicity (cytolytic) for Clc1cccc(Cl)c1N=C1NCCN1 stands at 0

For reference, reported Hepatotoxicity (cytolytic) for O=C(O)COc1nn(Cc2ccccc2)c2ccccc12 stands at 3

For reference, reported Hepatotoxicity (cytolytic) for O=C(OCC(O)CO)c1ccccc1Nc1ccnc2cc(Cl)ccc12 (stereo not drawn) stands at 12

For reference, reported Hepatotoxicity (cytolytic) for Cc1c(C)c2c(c(C)c1O)CC[C@@](C)(CCC[C@H](C)CCC[C@H](C)CCCC(C)C)O2 stands at 3

For reference, reported Hepatotoxicity (cytolytic) for CNCCC=C1c2ccccc2CCc2ccccc21 stands at 2

====

Kindly supply the reported Hepatotoxicity (acute) values for the records listed here.
# Conditions: human, serum

For reference, reported Hepatotoxicity (acute) for CCN1CCN(C(=O)N[C@@H](C(=O)N[C@@H]2C(=O)N3[C@@H]2SC(C)(C)[C@@H]3C(=O)O)c2ccccc2)C(=O)C1=O.C[C@]1(Cn2ccnn2)[C@H](C(=O)O)N2C(=O)C[C@H]2S1(=O)=O stands at 0

For reference, reported Hepatotoxicity (acute) for CC(C)c1nc(CN(C)C(=O)N[C@H](C(=O)N[C@@H](Cc2ccccc2)C[C@H](O)[C@H](Cc2ccccc2)NC(=O)OCc2cncs2)C(C)C)cs1 [RITONAVIR] stands at 14

For reference, reported Hepatotoxicity (acute) for Nc1ncn([C@@H]2O[C@H](CO)[C@@H](O)[C@H]2O)c(=O)n1 [AZACITIDINE] stands at 1

For reference, reported Hepatotoxicity (acute) for CCc1cc2c(s1)N(C)C(=O)CN=C2c1ccccc1Cl [CLOTIAZEPAM] stands at 2

For reference, reported Hepatotoxicity (acute) for COCCOC(=O)C1=C(C)NC(C)=C(C(=O)OC(C)C)C1c1cccc([N+](=O)[O-])c1 (stereo unspecified) [NIMODIPINE] stands at 3

For reference, reported Hepatotoxicity (acute) for CCOc1ccc2ccccc2c1C(=O)N[C@@H]1C(=O)N2[C@@H]1SC(C)(C)[C@@H]2C(=O)O [NAFCILLIN] stands at 5

For reference, reported Hepatotoxicity (acute) for OCCN1CCN(CCCN2c3ccccc3C=Cc3ccccc32)CC1 [OPIPRAMOL] stands at 2

For reference, reported Hepatotoxicity (acute) for CO/N=C(\C(=O)N[C@@H]1C(=O)N2C(C(=O)O)=C(CSc3cnns3)CS[C@H]12)c1csc(N)n1 [CEFUZONAM] stands at 0

For reference, reported Hepatotoxicity (acute) for CCN(CC)CCOc1ccc(C(=C(Cl)c2ccccc2)c2ccccc2)cc1 [CLOMIPHENE] stands at 2

For reference, reported Hepatotoxicity (acute) for [AsH3] [ARSENIC] stands at 1

For reference, reported Hepatotoxicity (acute) for C[C@H](CCC(=O)O)[C@H]1CC[C@H]2[C@@H]3[C@H](O)C[C@@H]4C[C@H](O)CC[C@]4(C)[C@H]3CC[C@]12C [CHENODIOL] stands at 5

For reference, reported Hepatotoxicity (acute) for COc1cc(NS(=O)(=O)c2ccc(N)cc2)nc(OC)n1 [SULFADIMETHOXINE] stands at 2

For reference, reported Hepatotoxicity (acute) for C[C@H](O)C(=O)Nc1c(I)c(C(=O)NC(CO)CO)c(I)c(C(=O)NC(CO)CO)c1I [IOPAMIDOL] stands at 1

For reference, reported Hepatotoxicity (acute) for Cc1ccc(-c2nc3ccc(C)cn3c2CC(=O)N(C)C)cc1 [ZOLPIDEM] stands at 2

For reference, reported Hepatotoxicity (acute) for CN(C)C(=O)CCCOC(=O)C(C)(C)Oc1ccc(Cl)cc1 [CLOFIBRIDE] stands at 0

For reference, reported Hepatotoxicity (acute) for CCOC(=O)C1=C[C@@H](OC(CC)CC)[C@H](NC(C)=O)[C@@H](N)C1 [OSELTAMIVIR] stands at 1
